System under test: UniProt:P25100
Sequence (P25100 whole entry): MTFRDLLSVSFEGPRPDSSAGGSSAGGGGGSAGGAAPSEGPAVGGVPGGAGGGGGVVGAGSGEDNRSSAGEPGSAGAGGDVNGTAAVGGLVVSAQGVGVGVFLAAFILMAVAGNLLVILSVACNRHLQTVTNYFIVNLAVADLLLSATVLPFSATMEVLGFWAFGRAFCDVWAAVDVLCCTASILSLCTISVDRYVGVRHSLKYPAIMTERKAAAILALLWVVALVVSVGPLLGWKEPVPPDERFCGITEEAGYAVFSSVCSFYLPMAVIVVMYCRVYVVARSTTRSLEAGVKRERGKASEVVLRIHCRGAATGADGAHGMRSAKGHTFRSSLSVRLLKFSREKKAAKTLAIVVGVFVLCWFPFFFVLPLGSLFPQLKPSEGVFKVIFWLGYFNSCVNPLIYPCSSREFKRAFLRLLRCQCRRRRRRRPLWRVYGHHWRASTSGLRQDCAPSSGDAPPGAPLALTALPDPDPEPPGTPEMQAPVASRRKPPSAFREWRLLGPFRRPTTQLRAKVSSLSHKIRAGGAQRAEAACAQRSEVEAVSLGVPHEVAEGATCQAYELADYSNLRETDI
Format: cell membranes, HEK293, Membrane
Details: read-out: Ki
The entries below are paired with their reported pKi.
Friendly reminder that pKi comes from taking -log10 of the concentration in mol/L.

CNC[C@H](O)c1ccc(O)c(O)c1 [EPINEPHRINE] | 6.66
CN(C)CCC=C1c2ccccc2COc2ccccc21 [DOXEPIN] | 7.24
CNCCCC12CCC(c3ccccc31)c1ccccc12 | 6.71
CN1C[C@H](CNC(=O)OCc2ccccc2)C[C@@H]2c3cccc4c3c(cn4C)C[C@H]21 | 7.17
CCN(CCO)CCCC(C)Nc1ccnc2cc(Cl)ccc12 (stereo not drawn) [HYDROXYCHLOROQUINE] | 5.63
CC(CN1c2ccccc2Sc2ccccc21)N(C)C (stereo not drawn) | 7.05
CC(C)Cn1cnc2c(N)nc3ccccc3c21 | 5.89

GET /values?readout=pKi&item= COc1ccccc1OCCNCC(O)COc1cccc2[nH]c3ccccc3c12 (stereo not drawn)
9.05

----------
Measurement notes: DRUGMATRIX: Calcium Channel Type L, Benzothiazepine radioligand binding (ligand: [3H] Diltiazem)
Type: cell membranes, Rattus norvegicus, Wistar, Brain, Membrane
Details: Not Active = under 50% inhibition at 10 µM
Experimental readout: Ki

Previously resolved entries follow.
C[N+]1(C)[C@@H]2C[C@@H](OC(=O)[C@H](CO)c3ccccc3)C[C@H]1[C@@H]1O[C@@H]12.[Br-] [METHSCOPOLAMINE BROMIDE] | Not Active
CO[C@@]12[C@H](COC(N)=O)C3=C(C(=O)C(C)=C(N)C3=O)N1C[C@@H]1N[C@@H]12 [MITOMYCIN] | Not Active
Cc1c(N)nc([C@H](CC(N)=O)NC[C@H](N)C(N)=O)nc1C(=O)N[C@H](C(=O)N[C@H](C)[C@@H](O)[C@H](C)C(=O)N[C@H](C(=O)NCCc1nc(-c2nc(C(=O)NCCC[S+](C)C)cs2)cs1)[C@@H](C)O)[C@@H](O[C@@H]1O[C@@H](CO)[C@@H](O)[C@H](O)[C@@H]1O[C@H]1O[C@H](CO)[C@@H](O)[C@H](OC(N)=O)[C@@H]1O)c1c[nH]cn1.[Br-] [BLEOMYCIN A2] | Not Active
O=C(O)c1cc(/N=N/c2ccc(S(=O)(=O)Nc3ccccn3)cc2)ccc1O [SULFASALAZINE] | Not Active
CC(C)(C#N)c1cc(Cn2cncn2)cc(C(C)(C)C#N)c1 [ANASTROZOLE] | Not Active

GET /values?readout=Ki&item= O=C(O)CO [GLYCOLIC ACID]
Not Active

Let us now turn to CCN1CCN(c2cc3c(cc2F)c(=O)c(C(=O)O)cn3C2CC2)CC1 [ENROFLOXACIN]
Not Active

----------
Measurement notes: DRUGMATRIX: Atrial Natriuretic Factor (ANF) radioligand binding (ligand: [125I] ANF (rat))
Format: cell membranes, Cavia porcellus, Dunkin-Hartley, Adrenal gland, Membrane
Details: Not Active = under 50% inhibition at 10 µM
Experimental readout: IC50

NC(=O)CN1CCCC1=O | Not Active
Cc1cn([C@H]2C=C[C@@H](CO)O2)c(=O)[nH]c1=O | Not Active
CNC[C@H](O)c1ccc(O)c(O)c1 [EPINEPHRINE] | Not Active
CC(C)(C)NC[C@H](O)COc1cccc2c1CCCC2=O | Not Active
CC#C[C@]1(O)CC[C@H]2[C@@H]3CCC4=CC(=O)CCC4=C3[C@@H](c3ccc(N(C)C)cc3)C[C@@]21C | Not Active

GET /values?readout=IC50&item= "Cc1ccnc(NS(=O)(=O)c2ccc(N)cc2)n1"
Not Active

Let us now turn to "Cc1c(N)nc([C@H](CC(N)=O)NC[C@H](N)C(N)=O)nc1C(=O)N[C@H](C(=O)N[C@H](C)[C@@H](O)[C@H](C)C(=O)N[C@H](C(=O)NCCc1nc(-c2nc(C(=O)NCCC[S+](C)C)cs2)cs1)[C@@H](C)O)[C@@H](O[C@@H]1O[C@@H](CO)[C@@H](O)[C@H](O)[C@@H]1O[C@H]1O[C@H](CO)[C@@H](O)[C@H](OC(N)=O)[C@@H]1O)c1c[nH]cn1.[Br-]"
Not Active
